Assay: in vitro
Details: human, hela cells, % viability
measurement name: viability at 28.5 h, 10 µM

molecule: COc1ccccc1CN1CCc2[nH]c(=S)[nH]c(=O)c2C1
viability at 28.5 h, 10 µM: 104%
--
molecule: O=C(Nc1ccccc1C(=O)N1CCCC1)c1cc(=O)[nH]c2ccccc12
viability at 28.5 h, 10 µM: 99.2%

Exercise: Let me know recorded viability at 28.5 h, 10 µM for O=C(CO)N1CC2(CCN(CCCn3c(=O)[nH]c4ccccc43)CC2)c2ccccc21 , thanks.
Key: 91.9%

Exercise: Identify measured viability at 28.5 h, 10 µM corresponding to Cc1cc(C)cc(NC2=N[C@H]3[C@@H](O)[C@H](O)C[C@H](C(=O)N4CCCCC4)[C@H]3S2)c1
Key: 90%

Exercise: Given COc1ccc(NC(=O)COc2noc3nc(C)c(C)c(C)c23)cc1OC , respond with its viability at 28.5 h, 10 µM.
Key: 108%

Exercise: Check the records and state viability at 28.5 h, 10 µM for CC(C)CC1C(C#N)=C(N)Oc2[nH]nc(-c3cccs3)c21 (stereo not drawn)
Key: 104%

Exercise: Identify measured viability at 28.5 h, 10 µM corresponding to Cc1noc(C)c1S(=O)(=O)N1CCOCC1c1cccc(F)c1 (stereo not drawn)
Key: 109%

Exercise: Tell me measured viability at 28.5 h, 10 µM for Cc1nn(C)c(C)c1CN(C(=O)c1ccc(C)n(C)c1=O)C1CC1 please.
Key: 105%

----------
List of viability at 28.5 h, 10 µM values.
Experiment: in vitro
Conditions: human, hela cells, % viability
Output should be the measured figure followed by the unit it is expressed in.

Recorded viability at 28.5 h, 10 µM, per entry:
compound: CCOc1cc(-c2cc(C(=O)O)c3ccccc3n2)ccc1O
measurement name: viability at 28.5 h, 10 µM
result: 103%
//
compound: CCCCN(C=O)c1c(CC)nc2c(OCc3ccccc3C)cccn12
measurement name: viability at 28.5 h, 10 µM
result: 92.2%
//
compound: NC1=NC(=O)C(CC(=O)Nc2ccccc2Cl)S1 (stereo not drawn)
measurement name: viability at 28.5 h, 10 µM
result: 99.1%
//
compound: COc1ccc([C@@]23CC[C@@H](NC(=O)Nc4ccccc4C#N)C[C@@H]2N(C)CC3)cc1OC [CBK047540T]
measurement name: viability at 28.5 h, 10 µM
result: 96.1%
//
compound: COc1nccnc1N1CCN(CCSC)CC1
measurement name: viability at 28.5 h, 10 µM
result: 90.2%
//
compound: Cc1cc2ccccc2n2c(SCC(=O)NCC3CCCO3)nnc12 (stereo not drawn)
measurement name: viability at 28.5 h, 10 µM
result: 103%
//
compound: COc1cccc(C(c2ccccn2)N(C)C(=O)C2CCN(S(=O)(=O)c3c(C)noc3C)CC2)c1 (stereo not drawn)
measurement name: viability at 28.5 h, 10 µM
result: 96.4%
//
compound: O=C(c1ccco1)N1CCC(c2nnc(-c3ccccc3)c(-c3ccccc3)n2)CC1
measurement name: viability at 28.5 h, 10 µM
result: 86.4%
//
compound: CC(C)C(=O)Nc1ccc2c(-c3ccccc3)ccnc2n1
measurement name: viability at 28.5 h, 10 µM
result: 101%
//
compound: C=C(C)Cn1c(-c2ccccc2C)nnc1S(=O)(=O)CC(C)C
measurement name: viability at 28.5 h, 10 µM
result: 80%

Exercise: Let me know recorded viability at 28.5 h, 10 µM for CCCCNc1nnc(-c2cc(C)nn2C)s1 , thanks.
Key: 91.5%

Exercise: Indicate the recorded viability at 28.5 h, 10 µM value for this compound: Cc1n[nH]cc1C(=O)NC[C@H]1CC[C@H](c2cc(C(=O)NC(C)C)c3ccccc3n2)CC1
Key: 96.3%

----------
Assay: in vitro
Settings: human, hela cells, % viability
// values below are reported viability at 28.5 h, 10 µM
The reply should be a number in %, with the unit left off.

Below: 4 molecules and their reported viability at 28.5 h, 10 µM.
molecule: COCc1nnc(Sc2nccnc2N2CCCC2)s1
number: 95.4

molecule: Cc1c(F)cccc1CN1CCN(S(=O)(=O)c2ccc(C(=O)c3ccccc3)cc2)CC1
number: 102

molecule: CCOc1ccc(CNc2ccc(CNc3ncn[nH]3)cc2)cc1
number: 91.7

molecule: Cn1c(=O)n(C)c2cc(-c3nc4ccccc4c(=O)[nH]3)ccc21
number: 98.5

Exercise: Specify measured viability at 28.5 h, 10 µM for O=C(CCn1c(=O)oc2ccccc21)Nc1ccc2c(c1)CN(Cc1ccccc1)C2 .
Key: 120

Exercise: For the molecule CS(=O)(=O)c1ccc(-c2cnc(N)c(NCCCO)n2)cc1 , report viability at 28.5 h, 10 µM.
Key: 87.3

Exercise: Using known records, supply viability at 28.5 h, 10 µM for CCCCNCCOC1CCC[C@@H]1Cl (some centres unmarked)
Key: 97.7

Exercise: Indicate its recorded viability at 28.5 h, 10 µM; the molecule in question is CCCn1cc(S(=O)(=O)N2CCCC2c2ccc(Nc3cccc(C)n3)cn2)c(C)n1 (centres unmarked)
Key: 77.6

----------
Experiment: in vitro
Settings: human, hela cells, % viability
compounds and their reported viability at 28.5 h, 10 µM
# number only, unit % dropped from output

Worked cases, viability at 28.5 h, 10 µM given:
chemical smiles: Cn1c(=O)oc2cc(NC(=O)CC3CCN(Cc4cccc(C(F)(F)F)c4)CC3)ccc21
measurement unit: %
viability at 28.5 h, 10 µM: 90
--
chemical smiles: O=C(COc1cc(Cl)c(Cl)cc1Cl)N1CCN(c2ccc([N+](=O)[O-])cc2)CC1
measurement unit: %
viability at 28.5 h, 10 µM: 97.1

Exercise: State its viability at 28.5 h, 10 µM for this compound: O=C1CN(C(=O)NCc2cccc(C(F)(F)F)c2)CCN1
Key: 105

----------
Assay: in vitro
Conditions: human, hela cells, % viability
# viability at 28.5 h, 10 µM values compiled below
Reply with just the number (in %).

Exercise: State its viability at 28.5 h, 10 µM for this compound: CC(C)(C)OC(=O)N1CCC(c2cc(=O)n3c(n2)CCCCC3)C1 (stereo not drawn) [CBK283415]
Key: 88.4

----------
Test: in vitro
Conditions: human, hela cells, % viability
Listed next: entries and their corresponding viability at 28.5 h, 10 µM.
Output spec: scalar in %, unitless text.

Here are 6 compounds together with their reported answers.
compound: CCN(CC)CCCC(C)Nc1ccnc2cc(Cl)ccc12 (stereo not shown)
viability at 28.5 h, 10 µM (%): 85.6
//
compound: CCc1nn(CC(=O)N(C)C)c(=O)c2cc3sccc3n12
viability at 28.5 h, 10 µM (%): 91.3
//
compound: Cc1nc2c(c(=O)[nH]1)CC[C@@H]1CN(C(=O)c3cc(F)cc(F)c3)C[C@H]21
viability at 28.5 h, 10 µM (%): 101
//
compound: CC(C)(C)c1nnc(NCC2CCCCC2)s1
viability at 28.5 h, 10 µM (%): 101
//
compound: O=[N+]([O-])c1ccc(Cl)cc1CN1CCN(C/C=C/c2ccccc2)CC1
viability at 28.5 h, 10 µM (%): 106
//
compound: Cc1nc2ccc(C(=O)NCCCN3CC(C)CC(C)C3)cc2[nH]1 (stereo not shown)
viability at 28.5 h, 10 µM (%): 85.4

Exercise: Identify measured viability at 28.5 h, 10 µM associated with O=C(C1CCC1)N1CCC(c2nnc3n2CCCCC3)CC1
Key: 103

----------
Test: in vitro
Conditions: human, hela cells, % viability
measurement name: viability at 28.5 h, 10 µM (%)
Please reply with the bare figure in % and do not write the unit itself.

compound: CCc1ccc(OCC(=O)c2ccc(O)c(CN(C)C)c2O)cc1 [CBK264438C]
measurement unit: %
viability at 28.5 h, 10 µM: 116
--
compound: Cc1cccc2c1CC(=O)NC21CCN(Cc2ccccc2)CC1
measurement unit: %
viability at 28.5 h, 10 µM: 87
--
compound: CC(C)(C)c1ccnc(N[C@H]2CO[C@H]3[C@@H]2OC[C@@H]3NS(=O)(=O)Cc2ccccc2)n1
measurement unit: %
viability at 28.5 h, 10 µM: 91.4

Exercise: Give reported viability at 28.5 h, 10 µM value for O=C1CC2(CCN(S(=O)(=O)Cc3ccc(Cl)cc3)CC2)CN1
Key: 102

Exercise: Determine its reported viability at 28.5 h, 10 µM: CCN1CCN(C(=O)c2cc(C)[nH]n2)CC1
Key: 108

Exercise: Supply viability at 28.5 h, 10 µM value. Item: O=C(C1CCCC1)N1CCC[C@@H]1Cn1c(=O)oc2ccccc21
Key: 87.3

Exercise: Identify measured viability at 28.5 h, 10 µM associated with CC(C)N(CC(N)=O)Cc1nc(-c2cccc(C(F)(F)F)c2)no1
Key: 89.8

Exercise: Please give the documented viability at 28.5 h, 10 µM of COC(=O)CNC(=O)c1ccncc1Br
Key: 101

Exercise: Annotate the compound COc1cc(/C=C(/C#N)c2nc3ccccc3[nH]2)ccc1OCc1ccc(C(=O)O)o1 with its measured viability at 28.5 h, 10 µM.
Key: 90.7
